tested_on: complex I catalysis in bovine heart mitochondrial membranes (Bos taurus, UniProt P03887+P03898+P17694+P42026)
Construct: Fresh cow hearts were purchased from an abattoir; tissue C; Humphreys and Sons, Chelmsford, U.K. (abattoir); host or cells: bovine heart mitochondrial membranes
test_name: NADH:O2 oxidoreduction by bovine heart mitochondrial membranes
Type: biochemical
study_conditions: Fig. 1C, pH 9
pIC50: −log10 of the molar value.
measurement_type: pIC50

compound=N=C(N=C(N)N)NCCc1ccc(I)c(Cl)c1 reading=5.40
compound="CN(C)C(=N)N=C(N)N [Metformin, metformin, reference compound]" reading=2.05

====

tested_on: complex I catalysis in bovine heart mitochondrial membranes (Bos taurus, UniProt P03887+P03898+P17694+P42026)
Construct: Fresh cow hearts were purchased from an abattoir; tissue C; Humphreys and Sons, Chelmsford, U.K. (abattoir); host or cells: bovine heart mitochondrial membranes
test_name: NADH:O2 oxidoreduction by bovine heart mitochondrial membranes
Format: biochemical
study_conditions: Fig. 1B, membranes of differing deactive complex I content; 3rd labelled value (deactive content not given)
IC50 for assorted compounds
measurement_type: IC50 (mM)

compound="N=C(N=C(N)N)NCCc1ccc(I)c(Cl)c1 [IM1092]" unit_of_measurement=mM reading=0.004
compound="CN(C)C(=N)N=C(N)N [Metformin, metformin, reference compound]" unit_of_measurement=mM reading=33

====

tested_on: complex I catalysis in bovine heart mitochondrial membranes (Bos taurus, UniProt P03887+P03898+P17694+P42026)
Construct: Fresh cow hearts were purchased from an abattoir; tissue C; Humphreys and Sons, Chelmsford, U.K. (abattoir); host or cells: bovine heart mitochondrial membranes
test_name: NADH:O2 oxidoreduction by bovine heart mitochondrial membranes
Format: biochemical
study_conditions: Fig. 1C, pH 6
pIC50: −log10 of the molar value.
measurement_type: pIC50

chem_smiles=N=C(N=C(N)N)NCCc1ccc(I)c(Cl)c1 reading=4.37

====

tested_on: complex I catalysis in bovine heart mitochondrial membranes (Bos taurus, UniProt P03887+P03898+P17694+P42026)
Construct: Fresh cow hearts were purchased from an abattoir; tissue C; Humphreys and Sons, Chelmsford, U.K. (abattoir); host or cells: bovine heart mitochondrial membranes
test_name: NADH:O2 oxidoreduction by bovine heart mitochondrial membranes
Format: biochemical
study_conditions: Fig. 1C, pH 8
measurement_type: IC50 (mM)

compound="CN(C)C(=N)N=C(N)N [Metformin, metformin, reference compound]" reading=38
compound=N=C(N=C(N)N)NCCc1ccc(I)c(Cl)c1 reading=0.021

====

tested_on: detergent-solubilized, purified bovine complex I (Bos taurus, UniProt P03887+P03898+P17694+P42026)
test_name: NADH:decylubiquinone (NADH:DQ) oxidoreduction by purified complex I
study_conditions: catalysis of detergent-solubilized, purified bovine complex I (NADH:DQ)
measurement_type: IC50

chem_smiles=N=C(N=C(N)N)NCCc1ccc(I)c(Cl)c1 reading="86 µM"

====

IC50 for assorted compounds
tested_on: complex I catalysis in bovine heart mitochondrial membranes (Bos taurus, UniProt P03887+P03898+P17694+P42026)
Construct: Fresh cow hearts were purchased from an abattoir; tissue C; Humphreys and Sons, Chelmsford, U.K. (abattoir); host or cells: bovine heart mitochondrial membranes
test_name: NADH:O2 oxidoreduction by bovine heart mitochondrial membranes
Format: biochemical
study_conditions: Fig. 1C, pH 9D(i): pH 9 deactivated membranes with antimycin A and AOX
measurement_type: IC50 (mM)

compound="N=C(N=C(N)N)NCCc1ccc(I)c(Cl)c1 [IM1092]" reading=0.000816
compound="CN(C)C(=N)N=C(N)N [Metformin, metformin, reference compound]" reading=8

====

tested_on: complex I catalysis in bovine heart mitochondrial membranes (Bos taurus, UniProt P03887+P03898+P17694+P42026)
Construct: Fresh cow hearts were purchased from an abattoir; tissue C; Humphreys and Sons, Chelmsford, U.K. (abattoir); host or cells: bovine heart mitochondrial membranes
test_name: NADH:O2 oxidoreduction by bovine heart mitochondrial membranes
Type: biochemical
study_conditions: Fig. 1C, pH 7
measurement_type: IC50 (µM)

compound="N=C(N=C(N)N)NCCc1ccc(I)c(Cl)c1 [IM1092]" measurement_type=IC50 reading=27

All figures here come from paper PMC7614227.
